meta.source: ChEMBL document CHEMBL1126118

EXPERIMENTAL_TARGET: Plasminogen (Rattus norvegicus)
Sequence (Q01177 97-581 limits assumed): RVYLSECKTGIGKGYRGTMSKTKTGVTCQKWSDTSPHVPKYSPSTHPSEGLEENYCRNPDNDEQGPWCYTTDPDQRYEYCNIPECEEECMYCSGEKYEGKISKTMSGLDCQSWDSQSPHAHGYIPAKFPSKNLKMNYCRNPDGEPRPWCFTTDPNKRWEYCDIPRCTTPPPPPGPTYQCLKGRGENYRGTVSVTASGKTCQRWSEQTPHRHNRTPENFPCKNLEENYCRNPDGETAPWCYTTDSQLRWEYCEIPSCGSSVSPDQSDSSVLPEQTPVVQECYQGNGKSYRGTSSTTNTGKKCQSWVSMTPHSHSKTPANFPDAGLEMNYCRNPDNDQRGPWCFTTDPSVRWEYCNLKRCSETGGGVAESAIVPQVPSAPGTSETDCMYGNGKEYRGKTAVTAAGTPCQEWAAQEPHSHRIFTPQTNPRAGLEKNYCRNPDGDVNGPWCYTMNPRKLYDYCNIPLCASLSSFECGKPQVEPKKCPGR
Sequence (Q01177 582-812 limits assumed): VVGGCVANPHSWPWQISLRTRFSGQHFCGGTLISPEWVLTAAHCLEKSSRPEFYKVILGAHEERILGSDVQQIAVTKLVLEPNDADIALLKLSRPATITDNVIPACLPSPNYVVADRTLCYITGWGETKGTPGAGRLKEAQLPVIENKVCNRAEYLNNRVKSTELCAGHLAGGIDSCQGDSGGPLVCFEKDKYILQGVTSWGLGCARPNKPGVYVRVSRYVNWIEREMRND
ASSAY_EXPLANATION: In vitro inhibitory activity against plasmin

>  <COMPOUND>
NC(N)=NCCCC(NC(=O)[C@@H]1CCCN1C(=O)[C@H](N)C(c1ccccc1)c1ccccc1)C(=O)CCC(=O)N1CCCCC1.O=C(O)C(F)(F)F.O=C(O)C(F)(F)F (stereo partly specified)

>  <EXPERIMENTAL_TARGET>
Plasminogen (Rattus norvegicus)

>  <Ki (µM)>
157

$$$$

###

EXPERIMENTAL_TARGET: Prothrombin (Homo sapiens, UniProt P00734)
pKi: −log10 of the molar value.

>  <COMPOUND>
NC(N)=NCCCC(NC(=O)[C@@H]1CCCN1C(=O)[C@H](N)C(c1ccccc1)c1ccccc1)C(=O)CCC(=O)N1CCCCC1.O=C(O)C(F)(F)F.O=C(O)C(F)(F)F (stereo partly drawn)

>  <pKi>
6.70

$$$$
>  <COMPOUND>
NC(N)=NCCCC(NC(=O)[C@@H]1CCCN1C(=O)C(N)Cc1ccc2ccccc2c1)C(=O)CCC(=O)N1CCCCC1.O=C(O)C(F)(F)F.O=C(O)C(F)(F)F (stereo partly drawn)

>  <pKi>
4.94

$$$$
>  <COMPOUND>
NC(N)=NCCCC(NC(=O)[C@@H]1CCCN1C(=O)[C@@H](N)C(c1ccccc1)c1ccccc1)C(=O)CCC(=O)N1CCCCC1.O=C(O)C(F)(F)F.O=C(O)C(F)(F)F (stereo partly drawn)

>  <pKi>
5.77

$$$$

###

EXPERIMENTAL_TARGET: Urokinase-type plasminogen activator (Homo sapiens, UniProt P00749)
pKi: −log10 of the molar value.
VALUE_TYPE: pKi

>  <COMPOUND>
NC(N)=NCCCC(NC(=O)[C@@H]1CCCN1C(=O)[C@H](N)C(c1ccccc1)c1ccccc1)C(=O)CCC(=O)N1CCCCC1.O=C(O)C(F)(F)F.O=C(O)C(F)(F)F (stereo partly specified)

>  <VALUE_TYPE>
pKi

>  <READOUT_VALUE>
3.31

$$$$
